Target: T1, human CLDN18.1 on cells (CHO-hCLDN18.1) (human, UniProt P56856 1-261)
T1 construct: whole, on cells; also called human Claudin18.1
T1 sequence (P56856 whole entry): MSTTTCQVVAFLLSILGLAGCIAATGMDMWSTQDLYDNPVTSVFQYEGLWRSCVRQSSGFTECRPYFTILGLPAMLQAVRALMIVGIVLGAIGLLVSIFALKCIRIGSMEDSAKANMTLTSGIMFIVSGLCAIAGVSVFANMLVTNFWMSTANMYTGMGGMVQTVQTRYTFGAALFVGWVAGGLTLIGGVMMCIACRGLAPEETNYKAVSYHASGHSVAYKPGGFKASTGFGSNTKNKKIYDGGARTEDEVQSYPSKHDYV
Test: flow cytometry (FACS) on CHO-hCLDN18.1 cells
MEASUREMENT KIND: binding result

* 38F8 (antibody, human IgG1, kappa, V domains shown) VH: EVQLVESGGGLVKPGGSLKLSCAASGFSFSDYGMHWVRQAPEKGLEWIAYINSGSRTLYYADTVKGRFTISRDNAKNTLFLQMTSLRSEETAMYYCTRNAYYGNAMDYWGQGTSVTVSS VL: DIQMTQSPSSLTVTAGEKVTMSCKSSQSLLNSGNQRNYLTWYQQIPGQPPKLLIYWSSTRGSGVPDRFTGSGSGTDFTLTISSVQAEDLAVYFCQNVYYYPFTFGSGTRLEVKR | no binding
* 59C1 (antibody, human IgG1, kappa, V domains shown) VH: QVQLKESGPDLVKPSQSLSLTCTVTGYSITSGYGWNWIRQFPGNKLEWMGYIHFSGSTNYNPSLKSRISITRDTSKNQFFLQLNSVTTEDTATYYCARSGKGNAMDYWGQGTSVTVSS VL: DIQMTQSPSSLTVTAGEKVTMSCKSSQSLLNSGNQKNYLTWYQQKPGQPPKLLIYWASTRESGVPDRFTGSGSGTDFTLTVINMQAEDLALYYCQNDYYFPFTFGSGTKLEIKR | no binding
* 46F6 (antibody, human IgG1, kappa, V domains shown) VH: QVQLKESGPGLVAPSQSLSITCTVSGFSLTDYGVSWIRQPPGKGLEWLGVMWGGGNTYYNSALKSRLSISKDNSKSQVFLKMNSLQSDDTAMYYCAKQRYGGNAMDYWGQGTSVTVSS VL: DIQMTQSPSSLTVTAGEKVTMSCKSSQSLLNSGNQRNYLTWYQQIPGQPPKLLIYWASTRESGVPNRFTGSGSGAEFTLTISSVQTEDLAVYYCQNSYFYPFTFGAGTKLELKR | no binding
